Biological target: UniProt Q13191
Sequence (Q13191 40-426): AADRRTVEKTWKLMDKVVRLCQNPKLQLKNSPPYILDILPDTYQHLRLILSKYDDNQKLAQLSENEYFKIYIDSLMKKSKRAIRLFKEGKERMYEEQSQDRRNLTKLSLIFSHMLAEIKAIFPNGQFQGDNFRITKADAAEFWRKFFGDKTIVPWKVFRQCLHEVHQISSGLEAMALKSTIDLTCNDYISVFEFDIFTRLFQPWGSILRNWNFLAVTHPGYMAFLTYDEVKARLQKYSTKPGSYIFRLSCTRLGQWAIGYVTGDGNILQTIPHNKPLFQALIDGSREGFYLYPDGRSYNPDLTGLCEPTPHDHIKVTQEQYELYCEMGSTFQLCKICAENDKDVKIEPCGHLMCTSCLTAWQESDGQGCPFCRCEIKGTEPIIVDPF
Assay: Cbl-b LCK Ub TR-FRET assay (Cbl-b Lck HTRF)
Type: biochemical
Conditions: Cbl-b LCK Ub TR-FRET, Example 121
quantity_name: IC50 (nM)

C[C@H](NC1(C)CCC1)c1cc2c(c(C(F)F)c1)CN(c1cccc([C@@H](c3nncn3C)C3COC3)c1)C2=O (single isomer, unassigned); 390

A = CO[C@H]1C[C@](c2cccc(N3Cc4c(cc(CNCC5(CF)CC5)cc4C(F)(F)F)C3=O)c2)(c2nncn2C)C1
B = CC1(NCc2cc3c(c(C(F)(F)F)c2)CN(c2cccc([C@@H](c4nnc[nH]4)C4COC4)c2)C3=O)CCC1 (single isomer, unassigned)
Q: Param pair: A , B . Output: the one whose IC50 is numerically greater. Write down the label of the entry you select.
A: B
(B: 6300 nM, A: 17 nM)

====

Molecular target: c-Cbl (Homo sapiens (Human))
Sequence (P22681 47-435): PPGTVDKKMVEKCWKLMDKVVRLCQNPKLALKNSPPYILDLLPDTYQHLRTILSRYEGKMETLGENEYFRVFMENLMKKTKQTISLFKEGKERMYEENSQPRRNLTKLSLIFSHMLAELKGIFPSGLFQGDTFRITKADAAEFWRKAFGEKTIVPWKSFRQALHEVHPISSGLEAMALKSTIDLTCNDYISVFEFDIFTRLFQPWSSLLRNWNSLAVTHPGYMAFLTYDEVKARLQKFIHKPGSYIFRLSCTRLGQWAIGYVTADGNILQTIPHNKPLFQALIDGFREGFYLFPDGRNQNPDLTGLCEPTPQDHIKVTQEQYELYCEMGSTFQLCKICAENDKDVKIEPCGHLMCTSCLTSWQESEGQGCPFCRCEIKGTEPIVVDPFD
pIC50: −log10 of the molar value.
quantity_name: pIC50

Example cases with answers are listed next.
CO[C@H]1C[C@@H]([C@@H](c2cccc(N3Cc4c(cc(CN5CCN(C)C[C@@H]5C(C)C)cc4C(F)(F)F)C3=O)c2)c2nncn2C)C1 (single isomer, unassigned); 6.00
Cn1cnnc1[C@H](CC1COC1)c1cccc(N2Cc3c(cc(CNC4(C)CCC4)cc3C(F)(F)F)C2=O)c1; 6.96
CC[C@](O)(c1cccc(N2Cc3c(cc(CNC4(C)CCC4)cc3C(F)(F)F)C2=O)c1)c1nncn1C (single isomer, unassigned); 6.07

A = CO[C@H]1C[C@](c2cccc(N3Cc4c(cc(CNC5CC5)cc4C(F)(F)F)C3=O)c2)(c2nncn2C)C1
B = Cn1cnnc1[C@@H](c1cccc(N2Cc3c(cc(CNC4(C)CCC4)cc3C(F)(F)F)C2=O)c1)C1CC(OC(F)F)C1 (single isomer, unassigned)
Q: // task: argmin of pIC50 over [ A , B ] Write down the label of the entry you select.
A: B

====

Target: UniProt Q13191
Assay: Cbl-b LCK Ub TR-FRET assay (Cbl-b Lck HTRF)
Assay type: biochemical
Details: ratio C-cbl Lck HTRF IC50 / Cbl-b Lck HTRF IC50
quantity_name: fold-selectivity (Cbl-b over C-cbl) (x)

Example cases with answers are listed next.
CO[C@H]1C[C@@](c2cc(C)cc(N3Cc4c(cc(CNC5(C)CCC5)cc4C(F)(F)F)C3=O)c2)(c2nncn2C)C1 [Compound 237]; 1.2
Cn1cnnc1[C@]1(c2cccc(N3Cc4c(cc(CNC5(C)CCC5)cc4C(F)(F)F)C3=O)c2)C[C@@H](CO)C1.O=CO [Compound 100]; 3.5
CCNc1cc([C@]2(c3nncn3C)C[C@H](C)C2)cc(N2Cc3c(cc(CNC4(C)CCC4)cc3C(F)(F)F)C2=O)c1F [Compound 336]; 1.2
Cn1cnnc1[C@@H](C[C@@H]1COCCO1)c1cccc(N2Cc3c(cc(CNC4(C)CCC4)cc3C(F)(F)F)C2=O)c1 [Compound 296]; 2.0
Cn1cnnc1[C@]1(c2cccc(N3Cc4c(cc(CNC5(C)CCC5)cc4C(F)(F)F)C3=O)c2)C[C@@]2(CCO2)C1 [Compound 109]; 4.6

I = COc1cc([C@H](c2nncn2C)C2COC2)cc(N2Cc3c(cc(CNC4(C)CCC4)cc3C(F)(F)F)C2=O)c1 (single isomer, unassigned) [Compound 338]
II = CC[C@H]1C[C@](c2cccc(N3Cc4c(Cl)cc(CNC5(C)CCC5)cc4C3=O)c2)(c2nncn2C)C1 [Compound 375]
III = Cn1cnnc1[C@@H](CC1CCS(=O)(=O)CC1)c1cccc(N2Cc3c(cc(CNC4(C)CCC4)cc3C(F)(F)F)C2=O)c1 [Compound 287]
Q: Put the items in order so that reported fold-selectivity (Cbl-b over C-cbl) rises from first to last. # respond with the labels, arranged in the requested order
A: III, I, II
(III: 1.0 x, I: 1.6 x, II: 2.5 x)

A = Cn1cnnc1[C@@H](c1cccc(N2Cc3c(cc(CNC4(C)CCC4)cc3C(F)(F)F)C2=O)c1)C1CC(OCC(F)F)C1 (single isomer, unassigned) [Compound 261]
B = Cn1cnnc1[C@]1(c2cccc(N3Cc4c(cc(CNC5(C)CCC5)cc4C(F)(F)F)C3=O)c2)C[C@@]2(CCCO2)C1 [Compound 341]
Q: // task: argmin of fold-selectivity (Cbl-b over C-cbl) over [ A , B ] Write down the label of the entry you select.
A: A
(A: 3.5 x, B: 8.4 x)

I = Cn1cnnc1[C@@](C)(O)c1cccc(N2Cc3c(cc(CNC4(C)CCC4)cc3C(F)(F)F)C2=O)c1 [Compound 306]
II = CO[C@H]1C[C@](c2cccc(N3Cc4c(cc([C@@H](C)NC5(C)CCC5)cc4C(F)(F)F)C3=O)c2)(c2nncn2C)C1 (single isomer, unassigned) [Compound 184]
Q: Param pair: I , II . Output: the one whose fold-selectivity (Cbl-b over C-cbl) is numerically greater. Write down the label of the entry you select.
A: I
(I: 1.6 x, II: 1.1 x)
